- Tested on: CP262
- assayDetails: qHTS profiling for inhibitors of Plasmodium falciparum proliferation (AID 504749); also: nearly all actives have a fitted effect of over 60% in size
- testConditions: P. falciparum in erythrocytes, SYBR Green DNA, 72 h; series mostly up to 28.7 µM
Records with an inconclusive call do not appear. Active and inactive are the calls of the source. Calls follow the shape of the dose curve; as a rule, active = well fitted inhibition curve with a large enough effect; inconclusive = small, poorly fitted or top-dose-only effect; inactive = flat fitted curve, though single readings scatter.
metricName: outcome

Solved cases below.
compound: O=C(O)c1nn(Cc2ccc(Cl)cc2Cl)c2ccccc12
assayTarget: CP262
outcome: inactive
//
compound: CCN(CC)C(C)C(=O)c1ccccc1 (stereo not drawn)
assayTarget: CP262
outcome: inactive
//
compound: c1cc2c(c(N3CCNCC3)c1)OCCO2
assayTarget: CP262
outcome: inactive
//
compound: Oc1c(Br)cc(Br)cc1Br
assayTarget: CP262
outcome: inactive
//
compound: CC(C)(O)C(Cl)(Cl)Cl
assayTarget: CP262
outcome: inactive

Under CP262, report outcome for C[N+]1(CCC(C(N)=O)(c2ccccc2)c2ccccc2)CCCCC1
inactive

Under CP262, report outcome for COCC(=O)N(c1c(C)cccc1C)C(C)C(=O)OC (stereo not drawn)
inactive

Under CP262, report outcome for NCc1cccnc1
inactive

---

- testConditions: Ebola virus entry assay, ratio channel
Active and inactive are the calls of the source.
A correct response names exactly one class from 1 = active, 0 = inactive

molecule: CCC(=O)O[C@]1(C(=O)COC)[C@@H](C)C[C@H]2[C@@H]3CCC4=CC(=O)C=C[C@]4(C)C3(F)[C@@H](O)C[C@@]21C (stereo not given in full)
className: 1
--
molecule: O=C(OCC(O)CO)c1ccccc1Nc1ccnc2c(C(F)(F)F)cccc12 (stereo not given)
className: 0
--
molecule: CN(C)CCCO[C@@H]1[C@H]2OC(C)(C)O[C@H]2O[C@@H]1C(O)CO (stereo not given in full)
className: 0
--
molecule: COc1cc(CC(C)N)cc2c1OCO2 (stereo not given)
className: 0
--
molecule: O=C1c2cccc(O)c2C(=O)c2c(O)cccc21
className: 0
--
molecule: Nc1ccn(C2CO[C@H](CO)O2)c(=O)n1 (stereo not given in full)
className: 0

Write down the call the test reported for this molecule. Item: CC(=O)N[C@H]1[C@H]([C@H](O)[C@H](O)CO)OC(C(=O)O)=C[C@@H]1N=C(N)N
0

Write down the call the test reported for this molecule. Item: CC(C(O)c1ccccc1)N(C)C/C=C/c1ccccc1 (stereo not given)
0

Write down the call the test reported for this molecule. Item: CCCc1ncc(C[n+]2ccccc2C)c(N)n1
0

Write down the call the test reported for this molecule. Item: Cc1c(N)c(=O)n(-c2ccccc2)n1C
0

Write down the call the test reported for this molecule. Item: Oc1ccc([C@H]2CNCc3c2ccc(O)c3O)cc1O
1

Write down the call the test reported for this molecule. Item: O=c1[nH]c2ccccc2n1CCCN1CCN(C(c2ccccc2)c2ccccc2)CC1
1

---

- Test system: CP286
- assayDetails: qHTS profiling for inhibitors of Plasmodium falciparum proliferation (AID 504749); also: nearly all actives have a fitted effect of over 60% in size
- testConditions: P. falciparum in erythrocytes, SYBR Green DNA, 72 h; series mostly up to 28.7 µM
Inconclusive results are not listed. Activity calls are given as the source filed them. The call rests on the fitted dose curve; in most records, active means well fitted inhibition curve with a large enough effect; inconclusive means small, poorly fitted or top-dose-only effect; inactive means flat fitted curve, though single readings scatter.
A correct response names exactly one class from active, inactive

// below: answered compounds
molecularString: CCCCCCCCC(=O)NCc1ccc(O)c(OC)c1
className: inactive
//
molecularString: Cc1c(Cl)c(=O)oc2cc(OP(=O)(OCCCl)OCCCl)ccc12
className: active

Write down the call the test reported for this compound. Item: C[C@]12C=CC(=O)C=C1CC[C@@H]1[C@@H]2CC[C@@]2(C)[C@H]1CC[C@]2(C)O
inactive

Write down the call the test reported for this compound. Item: CCNc1nc(Cl)nc(NCC)n1
inactive

Write down the call the test reported for this compound. Item: Cc1ccc(N=CN(C)C=Nc2ccc(C)cc2C)c(C)c1
inactive

Write down the call the test reported for this compound. Item: NC(=O)CN1CCCC1=O
inactive

Write down the call the test reported for this compound. Item: O=C(CCCN1CCC(n2c(=O)[nH]c3ccccc32)CC1)c1ccc(F)cc1
active

---

- testConditions: Ebola virus entry assay, blue channel fluorescence
Activity calls are given as the source filed them.
A correct response names exactly one class from T = active, F = inactive

compound: COC(=O)C1=C(C)NC(C)=C(C(=O)OC)C1c1ccccc1[N+](=O)[O-]
className: F

Write down the call the test reported for this compound. Item: O=C(NCCCN1CCOCC1)c1ccc(Cl)cc1
F

Write down the call the test reported for this compound. Item: Cc1cc(C(C)(C)C)cc(C)c1CC1=NCCN1
T

Write down the call the test reported for this compound. Item: NC(=O)C1(N2CCCCC2)CCN(CCCN2c3ccccc3CCc3ccc(Cl)cc32)CC1
T

Write down the call the test reported for this compound. Item: CCCCCCCCCCCCCCCCC(C(=O)O)C(O)(CC(=O)O)C(=O)O (stereo unspecified)
F

Write down the call the test reported for this compound. Item: Oc1c(Br)cc(Br)cc1Br
F

---

- Test system: CP247
- assayDetails: qHTS profiling for inhibitors of Plasmodium falciparum proliferation (AID 504749); also: nearly all actives have a fitted effect of over 60% in size
- testConditions: P. falciparum in erythrocytes, SYBR Green DNA, 72 h; series mostly up to 28.7 µM
Results filed as inconclusive are left out. The source made the active and inactive calls. Calls follow the shape of the dose curve; as a rule, active = well fitted inhibition curve with a large enough effect; inconclusive = small, poorly fitted or top-dose-only effect; inactive = flat fitted curve, though single readings scatter.
A correct response names exactly one class from yes = active, no = inactive

// below: answered compounds
compound: C[N+]1(CCC(C(N)=O)(c2ccccc2)c2ccccc2)CCCCC1
className: no
//
compound: CCOC(=O)NC(O)C(Cl)(Cl)Cl (stereo not given)
className: no
//
compound: C#C[C@]1(O)CC[C@H]2[C@@H]3CCC4=CC(=O)CCC4=C3C=C[C@@]21CC
className: yes
//
compound: CC(C)(O)C(Cl)(Cl)Cl
className: yes

Please look at the following compound next.
Write down the call the test reported for this compound. Item: Oc1ccc2[nH]cc(CCCCN3CC=C(c4ccccc4)CC3)c2c1
yes

---

- assayDetails: Primary qHTS for Huh7 cytotoxicity: counterscreen for inhibitors of MERS-S pseudotyped particle cell entry (AID 1479147)
- testConditions: cell viability read-out; series mostly up to 57.1 µM
Records with an inconclusive call do not appear. Calls of active or inactive are those of the source. The call rests on the fitted dose curve.
A correct response names exactly one class from 1 (active), 0 (inactive)

Write down the call the test reported for this compound. Item: NC(=NCCCCCCN=C(N)/N=C(\N)Nc1ccc(Cl)cc1)/N=C(\N)Nc1ccc(Cl)cc1
0

---

- assayDetails: qHTS for Inhibitors of the Functional Ribonucleoprotein Complex (vRNP) of Lassa (LASV) Arenavirus: LASV Primary Screen - GLuc reporter signal (AID 1347082); also: nearly all actives have a fitted effect of over 60% in size
- testConditions: LASV minigenome vRNP, Gaussia luciferase reporter; series mostly up to 57.5 µM
Results filed as inconclusive are left out. Active and inactive are the calls of the source. Calls follow the shape of the full dose curve; tested in HEK293 reporter line.
A correct response names exactly one class from active, inactive

// below: answered molecules
molecule: C[C@]12C=CC(=O)C=C1CC[C@@H]1[C@@H]2CC[C@@]2(C)[C@H]1CC[C@]2(C)O
className: inactive

molecule: C[C@@H]1C[C@@H]([C@H](O)CC2CC(=O)NC(=O)C2)C(=O)[C@@H](C)C1
className: active

molecule: Oc1ccc([C@H]2CNCc3c2ccc(O)c3O)cc1O
className: inactive

molecule: FC(F)(F)C(Cl)Br (stereo not drawn)
className: inactive

molecule: COc1cc([C@H]2Oc3cc([C@H]4Oc5cc(O)cc(O)c5C(=O)[C@@H]4O)ccc3O[C@@H]2CO)ccc1O
className: inactive

Write down the call the test reported for this molecule. Item: Cc1cccc(N(C)C(=S)Oc2ccc3ccccc3c2)c1
inactive

Write down the call the test reported for this molecule. Item: CCC(=O)O[C@]1(C(=O)CCl)[C@@H](C)C[C@H]2[C@@H]3CCC4=CC(=O)C=C[C@]4(C)[C@@]3(F)[C@@H](O)C[C@@]21C
inactive

Write down the call the test reported for this molecule. Item: CN1CCN(c2c(F)cc3c(=O)c(C(=O)O)cn(CCF)c3c2F)CC1
inactive

Write down the call the test reported for this molecule. Item: O=C1OC2(c3ccccc31)c1cc(I)c(O)c(I)c1Oc1c2cc(I)c(O)c1I
inactive

Write down the call the test reported for this molecule. Item: CCCCCC1Nc2cc(C(F)(F)F)c(S(N)(=O)=O)cc2S(=O)(=O)N1 (stereo not drawn)
inactive

---

- assayDetails: qHTS of pediatric cancer cell lines to identify multiple opportunities for drug repurposing: Primary screen for RD cells (AID 1347104);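 also: plate controls were DMSO for no effect and bortezomib for full effect; nearly all actives have a fitted effect of over 55% in size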
- testConditions: RD rhabdomyosarcoma viability, CellTiter-Glo luminescence, 48 h; series mostly up to 46 µM
Records with an inconclusive call do not appear. Calls of active or inactive are those of the source. Calls come from the whole dose curve; as a rule, active = well fitted cell-killing curve with a large enough effect; inconclusive = small, poorly fitted or top-dose-only effect; inactive = flat fitted curve, though single readings scatter.
A correct response names exactly one class from active, inactive

molecule: Cc1c(Cl)c(=O)oc2cc(OP(=O)(OCCCl)OCCCl)ccc12
className: inactive

molecule: CCOC(=O)C1(c2ccccc2)CCN(CCc2ccc(N)cc2)CC1
className: inactive

molecule: C[C@]12C=CC(=O)C=C1CC[C@@H]1[C@@H]2CC[C@@]2(C)[C@H]1CC[C@]2(C)O
className: inactive

Write down the call the test reported for this molecule. Item: COc1ccc(CN2CCNCC2)c(OC)c1OC
inactive

Write down the call the test reported for this molecule. Item: CN1C(=O)CN=C(c2ccccc2)c2cc(Cl)ccc21
inactive

Write down the call the test reported for this molecule. Item: CC(C(O)c1ccccc1)N(C)C/C=C/c1ccccc1 (stereo not given)
inactive

Write down the call the test reported for this molecule. Item: Cc1nnc2n1-c1sc(CCC(=O)N3CCOCC3)cc1C(c1ccccc1Cl)=NC2
inactive
